Measured values drawn from the supplement of paper PMC10338343 for this set.

Tested on: MILI (PIWIL2) piRISC loaded with L1MC piRNA (26 nt);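 further: 1 nM active piRISC with 0.1 nM target library at 33 °C single turnover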
Test: pre-steady-state target cleavage rate (min^-1); guide: L1MC piRNA 5'p-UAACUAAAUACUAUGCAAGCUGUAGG; higher = faster piRNA-guided slicing of the target
Settings: auxiliary factor: 500 nM mouse GTSF1
PARAMETER MEASURED: pre-steady-state target cleavage rate
Numbers only.

Solved cases below.
| RECORD SEQUENCE | pre-steady-state target cleavage rate |
| --- | --- |
| UCCUCCCUACAGCUUGCAUAGUAUUUAGUUA | 0.303 |
| UCCUGGAUCUGCUUGCAUAGUAUUUAGUUA | 0.229 |
| UCCUCCUACAGCUUGCAUAGUAUAAAGAAA | 0.0951 |
| UCCUGGAUCAGGUAGCAUAGUAUUUAGUUA | 0.118 |
| UCCUGGAACAGCUUGCAUAGUAUUUACUAA | 0.0459 |

Moving on to another sequence below.
State its pre-steady-state target cleavage rate: UCCUGGAUGUCCUUGCAUAGUAUUUAGUCA
0.0898

---

System: MILI (PIWIL2) piRISC loaded with piRNA #1 (26 nt);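 further: 1 nM active piRISC with 0.1 nM target library at 33 °C single turnover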
Assay: pre-steady-state target cleavage rate (min^-1); guide: piRNA #1 5'p-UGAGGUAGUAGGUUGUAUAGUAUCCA; higher = faster piRNA-guided slicing of the target
Conditions: auxiliary factor: 500 nM mouse GTSF1
Output criterion met for pre-steady-state target cleavage rate not less than 0.03; output criterion not met otherwise.

// below: answered sequences
| RECORD SEQUENCE | ASSIGNED CLASS |
| --- | --- |
| GGAGACGAUACUAUACAACCUACUUCCUGA | criterion not met |
| GGAGACCUAUGAUAUGUACCUUCAACCUCA | criterion not met |
| GGAGAGGUUACUUUACAACCUACUACCUCA | criterion met |

Query sequence follows.
Given GGAGACCUAUCUAUAGAACCUACUACCACA , state whether its pre-steady-state target cleavage rate is at least 0.03.
criterion met

---

Test system: EfPiwi piRISC loaded with piRNA #1 (26 nt)
Assay: pre-steady-state target cleavage rate (min^-1); auxiliary factor: 500 nM Ephydatia muelleri Gtsf1; guide: piRNA #1 5'p-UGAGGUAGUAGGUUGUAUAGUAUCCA; MIWI and MILI are mouse PIWI proteins and EfPiwi is from a freshwater sponge; tags in brackets are library labels; higher = faster piRNA-guided slicing of the target
Would you please tag the item 1 (yes) when its pre-steady-state target cleavage rate is 0.004 or above, and 0 (no) when it is below?

| RECORD SEQUENCE | ASSIGNED CLASS |
| --- | --- |
| GGAGAGGAUACUUUACAACCUACUACCUCA | 1 (yes) |
| GGAGACCUAUGAUAUCAACCAAGUACCUCA | 0 (no) |
| GGAGAGGAUACUUUACAACCUAGUACCUCA | 0 (no) |
| GGAGACGAUACUAUACAACCUACUAGCCUCA | 1 (yes) |
| GGAGACGAUUCUAUACUACCUACUACCUCA | 1 (yes) |
| GGAGACCUUACUAUACAACCUACUACUUCA | 1 (yes) |
| GGAGACCAUACUAUACAACCUGCUACCUCA | 1 (yes) |
| GGAGACGAUACUAUACAACCUACUACCUACA | 1 (yes) |
| GGAGAGGAUACUAGACAACCUACUACCUCA | 1 (yes) |
| GGAGACCUAUCUAUACAACCUACUACCUCU [g2:g20:cont:t1U] | 1 (yes) |

Quick check: does GGAGUGGAUACCAUACAACCUACUACCUCA have pre-steady-state target cleavage rate greater than or equal to 0.004?
1 (yes)

Assess whether reported pre-steady-state target cleavage rate for GGAGACCAUACUAUACAAGCUACUACCUCA sits at 0.004 or higher.
0 (no)

For this sequence, is measured pre-steady-state target cleavage rate 0.004 or higher? GGAGAGCAUACUAUACAACCUUCUACCUCA
1 (yes)

Would you say GGAGAGGAUACAAUACAACCAACUACCUCA shows pre-steady-state target cleavage rate at minimum 0.004?
0 (no)

Can GGAGACGAUACUAUACAACCUACUAGGAGA [g6:g24:cont:t1A] be said to have pre-steady-state target cleavage rate at or above 0.004?
0 (no)

// inclusive: pre-steady-state target cleavage rate at least 0.004? input: GGAGACCUAUGAUAUGUACCAACUACCACA
0 (no)

Determine whether measured pre-steady-state target cleavage rate meets or exceeds 0.004 for GGAGAGGAUACUAUACAACCUACUUCGUCA
1 (yes)

Form field: pre-steady-state target cleavage rate at least 0.004? Entry: GGAGUGGAUACUAUACAACCUACUACUCA
1 (yes)

Does pre-steady-state target cleavage rate meet or surpass 0.004 for GGAGACCUUGCUAUACAACCUACUACCUCA ?
1 (yes)
